Biological target: Phosphodiesterase 4 (Homo sapiens, UniProt P27815+Q08499+Q07343+Q08493)
Test: Inhibition of phosphodiesterase 4 (PDE4) prepared from human U937 cells
Assay type: cell-based
Conditions: u-937
PARAMETER: IC50

Request body: readout IC50, system Phosphodiesterase 4 (Homo sapiens, UniProt P27815+Q08499+Q07343+Q08493), query CCOc1cc(C2(C#N)CCN(CC(=O)O)CC2)ccc1OC . Return the value.
> 100 nM

Enter reported IC50 observed with Phosphodiesterase 4 (Homo sapiens, UniProt P27815+Q08499+Q07343+Q08493) for COc1ccc(C2(C#N)CCN(CC(=O)NO)CC2)cc1OC
4.7 nM

Form field: IC50 recorded for COc1ccc(C2(C#N)CCN(C(C)(C)C(=O)O)CC2)cc1OC1CCCC1 with Phosphodiesterase 4 (Homo sapiens, UniProt P27815+Q08499+Q07343+Q08493) (enter value)
> 1000 nM

* * *

IC50 values, listed per item
Biological target: Phosphodiesterase 4 (Homo sapiens, UniProt P27815+Q08499+Q07343+Q08493)
Experiment: Inhibition of phosphodiesterase 4 (PDE4) prepared from human U937 cells
Type: cell-based
Details: u-937

Solved entries (count: 5):
Field request: IC50 | item: CC(C)Oc1ccc(C2(C#N)CCN(CC(=O)O)CC2)cc1OC1CCCC1
> 1000 nM

So what does the record say about IC50 for COc1ccc(C2(C#N)CCN(C(C)(C)C(=O)NO)CC2)cc1OC1CCCC1 ?
34 nM

Dear colleague, I am looking for the recorded IC50 of the following molecule: COc1ccc(C2(C#N)CCN(CC(=O)NO)CC2)cc1OC1CCCC1
0.08 nM

Any idea what IC50 was measured for COc1ccc(C2(C#N)CCN(CC(=O)O)CC2)cc1OC1CCCC1 ?
66 nM

Would you kindly share the measured IC50 for N#CC1(c2ccc(OC(F)F)c(OC3CCCC3)c2)CCN(CC(=O)NO)CC1 ?
0.051 nM

Continuing:
For the molecule CCOc1cc(C2(C#N)CCN(CC(=O)NO)CC2)ccc1OC , what IC50 is on record?
0.52 nM

Bench note: what IC50 did CCOc1ccc(C2(C#N)CCN(CC(=O)NO)CC2)cc1OC1CCCC1 show?
6.2 nM

Could you tell me which IC50 is on file for COc1ccc(C2(C#N)CCN(CC(=O)NO)CC2)cc1OC(C)C ?
1 nM

I have this molecule here, COc1ccc(C2(C#N)CCN(CC(=O)O)CC2)cc1OC1Cc2ccccc2C1 , and I need its recorded IC50.
67 nM

Endpoint output: IC50 of CC(C)Oc1ccc(C2(C#N)CCN(CC(=O)NO)CC2)cc1OC1CCCC1 . Value?
> 30 nM

Would you mind telling me what IC50 value was observed for COc1ccc(C2(C#N)CCN(CC(=O)NO)CC2)cc1OC1CCC1 ?
0.18 nM

* * *

Each entry below lists one item and its recorded IC50 value.
Target: Phosphodiesterase 4 (Homo sapiens, UniProt P27815+Q08499+Q07343+Q08493)
Experiment: Inhibition of phosphodiesterase 4 (PDE4) prepared from human U937 cells
Assay type: cell-based
Settings: u-937
The response must be a number in nM with no trailing unit.

For COc1ccc(C2(C#N)CCN(C3(C(=O)NO)CC3)CC2)cc1OC1CCCC1 , what is its reported IC50?
4.6

Consider the additional molecule presented here.
Please look up its IC50: N#CC1(c2ccc(OC(F)F)c(OC3CCCC3)c2)CCN(CC(=O)O)CC1
65

* * *

Biological target: Phosphodiesterase 4 (Homo sapiens, UniProt P27815+Q08499+Q07343+Q08493)
Assay: Inhibition of phosphodiesterase 4 (PDE4) prepared from human U937 cells
Format: cell-based
Details: u-937
PARAMETER: IC50 (nM)
The reply should be a number in nM, with the unit left off.

Reported IC50, compound COc1ccc(C2(C#N)CCN(CC(=O)NO)CC2)cc1OCC1CC1 : ____
0.29

GET /values?readout=IC50&item= CCOc1ccc(C2(C#N)CCN(CC(=O)O)CC2)cc1OC1CCCC1
2500

Fill blank: measured IC50 of the compound COc1ccc(C2(C#N)CCN([C@H](C)C(=O)NO)CC2)cc1OC1CCCC1 is ____.
0.91

For the compound COc1ccc(C2(C#N)CCN([C@@H](C)C(=O)NO)CC2)cc1OC1CCCC1 , what IC50 is on record?
5.9

* * *

Target: Phosphodiesterase 4 (Homo sapiens, UniProt P27815+Q08499+Q07343+Q08493)
Test: Inhibition of phosphodiesterase 4 (PDE4) prepared from human U937 cells
Format: cell-based
Conditions: u-937
Measured IC50 of individual entries

I have this compound here, COc1ccc(C2(C#N)CCN([C@H](C)C(=O)O)CC2)cc1OC1CCCC1 , and I need its recorded IC50.
> 0.3 µM

Recorded IC50 for COc1ccc(C2(C#N)CCN(CC(=O)O)CC2)cc1OC1CCC1 , please?
> 0.1 µM

Now consider a different compound.
So what does the record say about IC50 for COc1ccc(C2(C#N)CCN(CC(=O)O)CC2)cc1OCC1CC1 ?
> 0.1 µM

* * *

The following compounds are listed with their measured IC50 values.
Target: Phosphodiesterase 4 (Homo sapiens, UniProt P27815+Q08499+Q07343+Q08493)
Assay: Inhibition of phosphodiesterase 4 (PDE4) prepared from human U937 cells
Assay type: cell-based
Details: u-937

Reference set, count: 3
For the compound COc1ccc(C2(C#N)CCN(C3(C(=O)O)CC3)CC2)cc1OC1CCCC1 , what IC50 is on record?
> 1000 nM

Sample COc1ccc(C2(C#N)CCN([C@@H](C)C(=O)O)CC2)cc1OC1CCCC1 — what was its IC50?
> 300 nM

Need IC50 of COc1ccc(C2(C#N)CCN(CC(=O)O)CC2)cc1OC , thanks.
> 100 nM

More entries:
Which IC50 is reported for this compound? COc1ccc(C2(C#N)CCN(CC(=O)O)CC2)cc1OC(C)C
> 100 nM
